Recorded values, source patent US7563781B2.

biological target: CAK complex (human Cdk7, human Cyclin H, MAT-1) (Homo sapiens); construct: made in house; host or cells: SF-900 insect cells co-infected with Flag-Cdk7 and Bab-Cyclin H baculoviruses; test: in vitro time-resolved-fluorescence assay for the CAK kinase activity; type: biochemical; conditions: compound 20 uM; read-out: CAK % inhib; 20 uM
Sequence (P50613 with tags, fused parts or gaps): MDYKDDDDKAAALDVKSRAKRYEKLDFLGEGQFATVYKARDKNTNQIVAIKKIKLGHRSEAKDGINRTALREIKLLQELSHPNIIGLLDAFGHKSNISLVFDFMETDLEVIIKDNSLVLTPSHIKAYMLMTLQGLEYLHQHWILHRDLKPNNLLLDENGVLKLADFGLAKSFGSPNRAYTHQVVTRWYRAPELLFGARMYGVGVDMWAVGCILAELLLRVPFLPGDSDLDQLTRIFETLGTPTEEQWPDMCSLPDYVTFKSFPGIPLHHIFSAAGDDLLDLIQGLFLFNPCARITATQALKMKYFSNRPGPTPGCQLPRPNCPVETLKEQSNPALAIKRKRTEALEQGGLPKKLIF
Sequence (as listed by the source partner): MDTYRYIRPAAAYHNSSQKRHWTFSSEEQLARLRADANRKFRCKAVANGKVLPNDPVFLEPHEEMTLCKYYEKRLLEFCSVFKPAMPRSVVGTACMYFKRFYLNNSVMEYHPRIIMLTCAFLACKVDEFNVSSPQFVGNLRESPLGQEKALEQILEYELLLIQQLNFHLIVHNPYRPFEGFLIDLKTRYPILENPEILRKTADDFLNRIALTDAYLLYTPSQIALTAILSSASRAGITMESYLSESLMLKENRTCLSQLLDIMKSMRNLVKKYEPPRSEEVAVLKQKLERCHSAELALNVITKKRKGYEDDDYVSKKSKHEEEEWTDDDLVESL
reported-metric: inhibition at 20 µM

compound: NS(=O)(=O)c1ccccc1Nc1ncc2nnn(-c3ccccc3S(N)(=O)=O)c2n1 [Compound 46]
experimental-system: CAK complex (human Cdk7, human Cyclin H, MAT-1) (Homo sapiens)
inhibition at 20 µM: 44.9%
--
compound: O=C(NCCCN1CCCC1)c1cccc(Nc2ncc3nnn(-c4ccc5c(c4)CCC5)c3n2)c1 [Compound 72]
experimental-system: CAK complex (human Cdk7, human Cyclin H, MAT-1) (Homo sapiens)
inhibition at 20 µM: 98.4%

Then this compound:
Query: // fetch inhibition at 20 µM given entry O=C(NCCCN1CCCC1)c1ccc(Nc2ncc3nnn(-c4ccc5c(c4)CCC5)c3n2)cc1 [Compound 75]
Result: 84%

----------
biological target: Focal Adhesion Kinase (full-length Flag-tagged human FAK) (Homo sapiens); construct: a purified recombinant full-length Flag-tagged human FAK protein; Flag; made in house; host or cells: baculovirus infected insect cells; assay: in vitro FAK ELISA kinase assay; assay type: biochemical; conditions: compound 10 uM; ATP 2 uM; read-out: FAK % Inhib ave: 10 uM
Kindly state inhibition at 10 µM for each of the entries shown.
Numbers only, in %.

Here are 5 compounds together with their reported answers.
compound: CCOC(=O)/C=C/c1ccc(Nc2ncc3nnn(-c4ccc5c(c4)CCC5)c3n2)cc1
experimental-system: Focal Adhesion Kinase (full-length Flag-tagged human FAK) (Homo sapiens)
reported-metric: inhibition at 10 µM
measured: 16
--
compound: c1cc(-c2csnn2)ccc1Nc1ncc2nnn(-c3ccc4c(c3)CCC4)c2n1
experimental-system: Focal Adhesion Kinase (full-length Flag-tagged human FAK) (Homo sapiens)
reported-metric: inhibition at 10 µM
measured: 11
--
compound: CN(C)CC(O)COc1ccc(Nc2ncc3nnn(-c4ccc5c(c4)CCC5)c3n2)cc1 (stereo not shown)
experimental-system: Focal Adhesion Kinase (full-length Flag-tagged human FAK) (Homo sapiens)
reported-metric: inhibition at 10 µM
measured: 93.6
--
compound: CN(C)CC(O)COc1ccc(Nc2ncc3nnn(-c4ccc(F)c(F)c4)c3n2)cc1 (stereo not shown)
experimental-system: Focal Adhesion Kinase (full-length Flag-tagged human FAK) (Homo sapiens)
reported-metric: inhibition at 10 µM
measured: 65.3
--
compound: c1cc(OCCCN2CCCC2)ccc1Nc1ncc2nnn(-c3ccc4c(c3)CCC4)c2n1
experimental-system: Focal Adhesion Kinase (full-length Flag-tagged human FAK) (Homo sapiens)
reported-metric: inhibition at 10 µM
measured: 91.2

List reported inhibition at 10 µM for each of these compounds:
1. CCCCNS(=O)(=O)c1cccc(-n2nnc3cnc(Nc4cc(OC)c(OC)c(OC)c4)nc32)c1
2. CN(CCO)CCCOc1ccc(Nc2ncc3nnn(-c4ccc5c(c4)CCC5)c3n2)cc1

Result:
1: 25; 2: 92.3

----------
biological target: Focal Adhesion Kinase (full-length Flag-tagged human FAK) (Homo sapiens, UniProt Q05397); construct: a purified recombinant full-length Flag-tagged human FAK protein; Flag; made in house; host or cells: baculovirus infected insect cells; assay: in vitro FAK ELISA kinase assay; format: biochemical; settings: compound 10 uM; ATP 2 uM; read-out: FAK % Inhib ave: 10 uM
Sequence (Q05397 whole entry): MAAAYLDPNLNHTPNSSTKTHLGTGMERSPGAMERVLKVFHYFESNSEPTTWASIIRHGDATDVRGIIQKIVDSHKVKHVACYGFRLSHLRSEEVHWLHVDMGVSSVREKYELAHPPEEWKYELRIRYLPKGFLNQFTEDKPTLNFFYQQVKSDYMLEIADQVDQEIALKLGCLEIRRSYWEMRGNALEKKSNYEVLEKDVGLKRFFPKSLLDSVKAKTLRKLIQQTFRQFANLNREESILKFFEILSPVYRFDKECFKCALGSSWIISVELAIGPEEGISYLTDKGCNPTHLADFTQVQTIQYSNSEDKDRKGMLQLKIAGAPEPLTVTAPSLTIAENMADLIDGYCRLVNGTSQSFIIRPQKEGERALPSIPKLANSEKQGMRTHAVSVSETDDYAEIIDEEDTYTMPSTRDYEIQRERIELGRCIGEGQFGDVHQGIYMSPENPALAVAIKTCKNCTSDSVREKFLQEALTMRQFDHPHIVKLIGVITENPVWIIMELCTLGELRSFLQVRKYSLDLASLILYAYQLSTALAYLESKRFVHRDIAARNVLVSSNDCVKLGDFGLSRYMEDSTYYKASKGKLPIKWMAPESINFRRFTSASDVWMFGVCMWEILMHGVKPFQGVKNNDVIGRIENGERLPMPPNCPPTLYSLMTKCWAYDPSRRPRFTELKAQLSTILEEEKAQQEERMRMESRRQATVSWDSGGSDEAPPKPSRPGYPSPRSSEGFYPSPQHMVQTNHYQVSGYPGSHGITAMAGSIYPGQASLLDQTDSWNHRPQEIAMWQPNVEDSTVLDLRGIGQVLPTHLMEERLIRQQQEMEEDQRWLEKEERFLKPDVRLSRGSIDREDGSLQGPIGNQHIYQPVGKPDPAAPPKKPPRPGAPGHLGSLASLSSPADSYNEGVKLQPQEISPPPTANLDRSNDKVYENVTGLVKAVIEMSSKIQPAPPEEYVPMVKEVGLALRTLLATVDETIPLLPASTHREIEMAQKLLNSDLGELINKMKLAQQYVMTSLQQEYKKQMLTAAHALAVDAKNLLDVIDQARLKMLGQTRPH
reported-metric: inhibition at 10 µM

compound: CCN(CC)CCNC(=O)c1ccc(Nc2ncc3nnn(-c4ccc(N5CCN(Cc6ccccc6)CC5)cc4)c3n2)cc1 [Compound 56]
reported-metric: inhibition at 10 µM
measured: 75.5%
//
compound: CN(C)CC(O)COc1ccc(Nc2ncc3nnn(-c4ccc5ccccc5c4)c3n2)cc1 (stereo not shown) [Compound 12]
reported-metric: inhibition at 10 µM
measured: 82.9%
//
compound: NS(=O)(=O)c1ccccc1-n1nnc2cnc(Nc3ccc4[nH]ncc4c3)nc21 [Compound 45]
reported-metric: inhibition at 10 µM
measured: 21.8%

Moving on to another compound below.
Query: Write down inhibition at 10 µM measured for item CN(Cc1ccccc1Nc1ncc2nnn(-c3ccccc3CN(C)C3CCCCC3)c2n1)C1CCCCC1 [Compound 21]
Result: 19%
